// provenance: PubChem BioAssay (NCI)

System: HCC-2998 colon
Test: NCI-60 one-dose screen, 48 h (100 = growth as untreated, 0 = no growth, -100 = all killed)
Settings: 10 µM
Method: Growth inhibition of the HCC-2998 human tumor cell line is measured as a screen for anti-cancer activity. Cells are grown in 96 well plates and exposed to the test compound for 48 hours. Compounds are tested at a single concentration, which is 10^-5 M for most compounds. The reported endpoint is percent growth (GI% or GIPRCNT), where numbers from 0 - 100% represent growth inhibition, and numbers from -100% - 0 represent cell death. For example, a value of 40 represents 60% growth inhibition. […]
The panel holds about 83,000 compounds, 20% with a hit somewhere; the sample as a whole holds those more often.
I'd appreciate it if you could supply growth values for the items below.
Numbers only, in %.

// known answers, use as guide
>  <molecule>
O=C(CC(CC(=O)c1ccccc1)c1ccccc1O)c1ccccc1

>  <parameter.measured>
growth

>  <assay.value>
105

$$$$
>  <molecule>
O=C1CC(SC(=S)C2CCCC2=O)C(=O)N1 (stereo not given)

>  <parameter.measured>
growth

>  <assay.value>
108

$$$$

Go through the list and state growth for each entry.
1. COc1cc(/C=C/c2cc(/C=C/c3ccc(O)c(OC)c3)[nH]c(=O)n2)ccc1O
2. COc1ccc(-c2nnc(SCC(=O)Nc3ccc(C(=O)/C=C/c4ccccc4)cc3)n2-c2ccccc2)cc1OC
3. NC1=NC(c2ccc(Cl)cc2)C2=C(N1)/C(=C/c1ccc(Cl)cc1)CCC2 (stereo not given)

output:
1. 71
2. 110
3. -31.1
